The measured values listed here are drawn from paper PMC9437094.

target: α-glucosidase from Saccharomyces cerevisiae (Saccharomyces cerevisiae); assay: biochemical; assay type: biochemical; settings: yeast α-glucosidase, substrate p-nitrophenyl glucopyranoside, 37 °C; read-out: IC50
observation type: IC50 (µM)
One number for each entry, in µM.

### Prompt Value lookup for IC50; key = COc1ccc(-c2nc3cc(C(=O)N/N=C/c4ccc(O)c(OC)c4)ccc3[nH]2)cc1
### Response 287

---

target: α-glucosidase from Saccharomyces cerevisiae (Saccharomyces cerevisiae, UniProt P53341); experiment: biochemical; format: biochemical; conditions: IC50, yeast α-glucosidase, substrate p-nitrophenyl glucopyranoside, 37 °C
Sequence (P53341 whole entry): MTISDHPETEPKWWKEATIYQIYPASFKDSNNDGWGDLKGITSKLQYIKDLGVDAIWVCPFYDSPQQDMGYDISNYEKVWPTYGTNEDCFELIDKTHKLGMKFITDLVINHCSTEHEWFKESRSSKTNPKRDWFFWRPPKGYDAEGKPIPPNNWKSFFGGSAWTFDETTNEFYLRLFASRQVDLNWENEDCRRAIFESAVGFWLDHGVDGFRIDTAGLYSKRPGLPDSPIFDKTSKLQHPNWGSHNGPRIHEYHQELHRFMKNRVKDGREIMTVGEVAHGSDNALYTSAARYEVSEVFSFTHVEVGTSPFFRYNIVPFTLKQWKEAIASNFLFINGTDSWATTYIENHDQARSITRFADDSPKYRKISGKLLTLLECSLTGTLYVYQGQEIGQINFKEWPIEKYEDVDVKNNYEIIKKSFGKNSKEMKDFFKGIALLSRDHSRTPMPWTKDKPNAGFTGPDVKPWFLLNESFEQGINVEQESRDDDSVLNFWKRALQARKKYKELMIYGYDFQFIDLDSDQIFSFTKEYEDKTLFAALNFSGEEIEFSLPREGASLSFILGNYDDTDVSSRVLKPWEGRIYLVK
For each record, check the reported IC50: if it is below 100 µM write Yes, else write No.

molecule: COc1ccc(-c2nc3cc(C(=O)N/N=C/c4ccccc4Cl)ccc3[nH]2)cc1 [Compound 8k]
group label: Yes
//
molecule: COc1ccc(-c2nc3cc(C(=O)N/N=C/c4cccc(O)c4)ccc3[nH]2)cc1 [Compound 8f]
group label: No
//
molecule: COc1ccc(-c2nc3cc(C(=O)N/N=C/c4cc5c(cc4[N+](=O)[O-])OCO5)ccc3[nH]2)cc1 [Compound 8o]
group label: No
//
molecule: COc1ccc(-c2nc3cc(C(=O)N/N=C/c4ccccc4)ccc3[nH]2)cc1 [Compound 8a]
group label: Yes
//
molecule: COc1ccc(-c2nc3cc(C(=O)N/N=C/c4cccc(F)c4)ccc3[nH]2)cc1 [Compound 8i]
group label: Yes
//
molecule: COc1ccc(-c2nc3cc(C(=O)N/N=C/c4cccs4)ccc3[nH]2)cc1 [Compound 8p]
group label: Yes

Proceed to the following item.
### Prompt Criterion: IC50 strictly below 100 µM. Is it met by COc1ccc(/C=N/NC(=O)c2ccc3[nH]c(-c4ccc(OC)cc4)nc3c2)cc1 [Compound 8c] ?
### Response No

---

observation type: melting point

Worked set:
compound structure string: COc1ccc(-c2nc3cc(C(=O)N/N=C/c4cccs4)ccc3[nH]2)cc1
result: > 250 °C
//
compound structure string: COc1ccc(-c2nc3cc(C(=O)N/N=C/c4ccc(Cl)cc4)ccc3[nH]2)cc1
result: > 250 °C
//
compound structure string: COc1ccc(/C=N/NC(=O)c2ccc3[nH]c(-c4ccc(OC)cc4)nc3c2)cc1
result: > 250 °C
//
compound structure string: COc1ccc(-c2nc3cc(C(=O)N/N=C/c4cccc(Br)c4)ccc3[nH]2)cc1
result: > 250 °C
//
compound structure string: COc1ccc(-c2nc3cc(C(=O)N/N=C/c4cc5c(cc4[N+](=O)[O-])OCO5)ccc3[nH]2)cc1
result: > 250 °C
//
compound structure string: COc1ccc(-c2nc3cc(C(=O)N/N=C/c4ccccc4Cl)ccc3[nH]2)cc1
result: > 250 °C
//
compound structure string: COc1ccc(-c2nc3cc(C(=O)N/N=C/c4ccc(O)c(OC)c4)ccc3[nH]2)cc1
result: > 250 °C

### Prompt Return reported melting point; argument: COc1ccc(-c2nc3cc(C(=O)N/N=C/c4ccc(F)cc4)ccc3[nH]2)cc1
### Response > 250 °C

---

molecular target: α-glucosidase from Saccharomyces cerevisiae (Saccharomyces cerevisiae); assay: biochemical; assay type: biochemical; details: IC50, yeast α-glucosidase, substrate p-nitrophenyl glucopyranoside, 37 °C
Returns: string. Value is true (1) if measured IC50 is below 100 µM, and false (0) if it is greater than or equal to it.

### Prompt Lab note: IC50 threshold 100 µM. Does this molecule come in strictly under it? COc1ccc(-c2nc3cc(C(=O)N/N=C/c4ccc([N+](=O)[O-])cc4)ccc3[nH]2)cc1
### Response false (0)

### Prompt Is IC50 of COc1ccc(-c2nc3cc(C(=O)N/N=C/c4ccc(F)cc4)ccc3[nH]2)cc1 strictly below 100 µM?
### Response true (1)

### Prompt Input COc1ccc(-c2nc3cc(C(=O)N/N=C/c4cccc(Oc5ccccc5)c4)ccc3[nH]2)cc1 ; condition: IC50 strictly below 100 µM. Does it hold?
### Response false (0)

### Prompt Confirm or reject: IC50 of COc1ccc(-c2nc3cc(C(=O)N/N=C/c4ccccc4F)ccc3[nH]2)cc1 lies strictly below 100 µM
### Response true (1)
